- testDetails: Inhibition of human lysosomal beta-glucosidase assessed as reduction of p-nitrophenol release using p-nitrophenyl glycoside as substrate by spectrophotometric analysis
Form field: IC50 (one value per entry).

- cpdSmiles: "Cc1ccc(CCCCCC[C@@H](O)[C@H]2N[C@H](CO)[C@@H](O)[C@@H]2O)cc1"
  IC50 / µM: 1.1
- cpdSmiles: "CC(C)(C)c1ccc(CCCCCC[C@H](O)[C@@H]2N[C@@H](CO)[C@H](O)[C@H]2O)cc1"
  IC50 / µM: 32
- cpdSmiles: "OC[C@H]1N[C@H]([C@@H](O)CCCCCCc2ccccc2)[C@@H](O)[C@@H]1O"
  IC50 / µM: 7.6
- cpdSmiles: "Cl.OC[C@@H]1N[C@@H]([C@@H](O)CCCCCCc2ccc(F)c(F)c2)[C@H](O)[C@H]1O"
  IC50 / µM: 20

* * *

- Organism: Sus scrofa
- testDetails: Inhibition of porcine kidney alpha/alpha-trehalase assessed as reduction of p-nitrophenol release using p-nitrophenyl glycoside as substrate at 1000 uM by spectrophotometric analysis relative to control
Form field: inhibition (one value per entry).
metricName: inhibition (%)

- cpdSmiles: "OC[C@H]1N[C@H](CCCCCCCc2ccccc2)[C@@H](O)[C@H]1O"
  metricName: "inhibition"
  unitName: "%"
  resultNumber: 3.5
- cpdSmiles: "OC[C@H]1N[C@H]([C@@H](O)CCCCCCc2ccc(F)c(F)c2)[C@@H](O)[C@@H]1O"
  metricName: "inhibition"
  unitName: "%"
  resultNumber: 0
- cpdSmiles: "Cc1ccc(CCCCCCC[C@H]2N[C@H](CO)[C@@H](O)[C@@H]2O)cc1.Cl"
  metricName: "inhibition"
  unitName: "%"
  resultNumber: 3.5
- cpdSmiles: "OC[C@@H]1N[C@@H]([C@@H](O)CCCCCCc2ccc(Cl)cc2)[C@H](O)[C@H]1O"
  metricName: "inhibition"
  unitName: "%"
  resultNumber: 0
- cpdSmiles: "OC[C@@H]1N[C@@H]([C@@H](O)CCCCCCc2ccc(F)cc2)[C@H](O)[C@H]1O"
  metricName: "inhibition"
  unitName: "%"
  resultNumber: 0
- cpdSmiles: "Cl.OC[C@@H]1N[C@@H](CCCCCCCc2ccccc2)[C@H](O)[C@H]1O"
  metricName: "inhibition"
  unitName: "%"
  resultNumber: 5.6
- cpdSmiles: "CC(C)(C)c1ccc(CCCCCC[C@@H](O)[C@@H]2N[C@@H](CO)[C@H](O)[C@H]2O)cc1"
  metricName: "inhibition"
  unitName: "%"
  resultNumber: 0
- cpdSmiles: "Cl.OC[C@H]1N[C@H](CCCCCCCc2ccc(Cl)cc2)[C@@H](O)[C@@H]1O"
  metricName: "inhibition"
  unitName: "%"
  resultNumber: 7.7
- cpdSmiles: "Cl.OC[C@H]1N[C@H](CCCCCCCc2cccc(F)c2)[C@@H](O)[C@@H]1O"
  metricName: "inhibition"
  unitName: "%"
  resultNumber: 7.5
- cpdSmiles: "CC(C)(C)c1ccc(CCCCCC[C@@H](O)[C@H]2N[C@H](CO)[C@@H](O)[C@@H]2O)cc1.Cl"
  metricName: "inhibition"
  unitName: "%"
  resultNumber: 2.3
- cpdSmiles: "CC(C)(C)c1ccc(CCCCCC[C@H](O)[C@@H]2N[C@@H](CO)[C@H](O)[C@H]2O)cc1"
  metricName: "inhibition"
  unitName: "%"
  resultNumber: 0.9

* * *

- Tested on: Prunus dulcis
- testDetails: Inhibition of almond beta-glucosidase assessed as reduction of p-nitrophenol release using p-nitrophenyl glycoside as substrate at 1000 uM by spectrophotometric analysis relative to control

- cpdSmiles: "OC[C@@H]1N[C@@H]([C@H](O)CCCCCCc2ccc(Cl)cc2)[C@H](O)[C@H]1O"
  inhibition [%]: 9.6
- cpdSmiles: "CC(C)(C)c1ccc(CCCCCC[C@H](O)[C@@H]2N[C@@H](CO)[C@H](O)[C@H]2O)cc1"
  inhibition [%]: 44.7
- cpdSmiles: "OC[C@H]1N[C@H](CCCCCCCc2ccc(F)c(F)c2F)[C@@H](O)[C@@H]1O"
  inhibition [%]: 42
- cpdSmiles: "CC(C)(C)c1ccc(CCCCCC[C@@H](O)[C@@H]2N[C@@H](CO)[C@H](O)[C@H]2O)cc1"
  inhibition [%]: 21.8
- cpdSmiles: "OC[C@@H]1N[C@@H]([C@H](O)CCCCCCc2ccc(F)cc2)[C@H](O)[C@H]1O"
  inhibition [%]: 27.4
- cpdSmiles: "OC[C@@H]1N[C@@H]([C@@H](O)CCCCCCc2ccc(Cl)cc2)[C@H](O)[C@H]1O"
  inhibition [%]: 37.1
- cpdSmiles: "Cc1ccc(CCCCCC[C@@H](O)[C@@H]2N[C@@H](CO)[C@H](O)[C@H]2O)cc1"
  inhibition [%]: 14.7
- cpdSmiles: "Cl.OC[C@@H]1N[C@@H]([C@@H](O)CCCCCCc2ccc(F)c(F)c2)[C@H](O)[C@H]1O"
  inhibition [%]: 28.4

* * *

Form field: inhibition (one value per entry).
- Organism: Bos taurus
- testDetails: Inhibition of bovine liver beta-glucuronidase assessed as reduction of p-nitrophenol release using p-nitrophenyl-glycoside as substrate at 1000 uM by spectrophotometric analysis relative to control

- cpdSmiles: "CC(C)(C)c1ccc(CCCCCC[C@@H](O)[C@@H]2N[C@@H](CO)[C@H](O)[C@H]2O)cc1"
  unitName: "%"
  inhibition: 18.4
- cpdSmiles: "OC[C@H]1N[C@H]([C@@H](O)CCCCCCc2ccc(F)c(F)c2)[C@@H](O)[C@@H]1O"
  unitName: "%"
  inhibition: 1.6
- cpdSmiles: "Cl.OC[C@@H]1N[C@@H](CCCCCCCc2ccccc2)[C@H](O)[C@H]1O"
  unitName: "%"
  inhibition: 41.5
- cpdSmiles: "Cl.OC[C@H]1N[C@H](CCCCCCCc2ccc(Cl)cc2)[C@@H](O)[C@@H]1O"
  unitName: "%"
  inhibition: 6
- cpdSmiles: "OC[C@@H]1N[C@@H]([C@@H](O)CCCCCCc2ccc(F)cc2)[C@H](O)[C@H]1O"
  unitName: "%"
  inhibition: 0

* * *

- testDetails: Inhibition of human beta-glucosidase
pIC50: −log10 of the molar value.

- compound: "CCCCCCCCCCCCCC1N[C@H](CO)[C@@H](O)[C@@H]1O (stereo partly specified)"
  pIC50: 6.11

* * *

- Test system: Helix pomatia
- testDetails: Inhibition of snail beta-mannosidase assessed as reduction of p-nitrophenol release using p-nitrophenyl glycoside as substrate at 1000 uM by spectrophotometric analysis relative to control
inhibition of 0.8% or higher: y. Under 0.8%: n.

- cpdSmiles: "Cc1ccc(CCCCCC[C@H](O)[C@@H]2N[C@@H](CO)[C@H](O)[C@H]2O)cc1"
  classification: "y"
- cpdSmiles: "Cc1ccc(CCCCCC[C@@H](O)[C@@H]2N[C@@H](CO)[C@H](O)[C@H]2O)cc1"
  classification: "n"
- cpdSmiles: "Cl.OC[C@H]1N[C@H](CCCCCCCc2ccc(F)cc2)[C@@H](O)[C@@H]1O"
  classification: "y"
- cpdSmiles: "OC[C@@H]1N[C@@H]([C@H](O)CCCCCCc2ccc(F)cc2)[C@H](O)[C@H]1O"
  classification: "y"

* * *

Form field: inhibition (one value per entry).
- Species on record: Sus scrofa
- testDetails: Inhibition of porcine kidney alpha/alpha-trehalase assessed as reduction of p-nitrophenol release using p-nitrophenyl glycoside as substrate at 1000 uM by spectrophotometric analysis relative to control

- cpdSmiles: "Cl.OC[C@H]1N[C@H]([C@H](O)CCCCCCc2ccc(F)cc2)[C@@H](O)[C@@H]1O"
  inhibition / %: 0
- cpdSmiles: "OC[C@H]1N[C@H](CCCCCCCc2ccc(F)c(F)c2F)[C@@H](O)[C@@H]1O"
  inhibition / %: 1.3
- cpdSmiles: "Cc1ccc(CCCCCC[C@@H](O)[C@@H]2N[C@@H](CO)[C@H](O)[C@H]2O)cc1"
  inhibition / %: 0
- cpdSmiles: "Cl.OC[C@@H]1N[C@@H]([C@@H](O)CCCCCCc2ccc(F)c(F)c2)[C@H](O)[C@H]1O"
  inhibition / %: 2.3
- cpdSmiles: "OC[C@H]1N[C@H]([C@@H](O)CCCCCCc2ccc(F)cc2)[C@@H](O)[C@@H]1O"
  inhibition / %: 7.5
- cpdSmiles: "OC[C@H]1N[C@H](CCCCCCCc2ccccc2)[C@@H](O)[C@@H]1O"
  inhibition / %: 10.7
- cpdSmiles: "CC(C)(C)c1ccc(CCCCCC[C@H](O)[C@H]2N[C@H](CO)[C@@H](O)[C@@H]2O)cc1"
  inhibition / %: 0
- cpdSmiles: "Cl.OC[C@H]1N[C@H](CCCCCCCc2ccc(F)cc2)[C@@H](O)[C@@H]1O"
  inhibition / %: 4
- cpdSmiles: "OC[C@@H]1N[C@@H]([C@H](O)CCCCCCc2ccc(Cl)cc2)[C@H](O)[C@H]1O"
  inhibition / %: 0
